# tested system: T1, Cyno CD33 full length, expressed on HEK293F cells (cynomolgus monkey)
# T1 construct: HEK293F cells transduced with lentivirus containing full length cyno CD33 (Genbank XP_005590138.1); also called cyCD33
# test: flow cytometry, HEK293F cells expressing cyno CD33
Please assign not fulfilled whenever MFI at 6 nM mAb is at or above 30000 MFI, and fulfilled whenever it is below.

Solved entries:
binder: C33B79 (antibody, IgG1, V domains shown, huIgG1 F405L; also called C33F84; C33H74/C33L38) VH: QVQLVESGGGVVQPGRSLRLSCAASRFTFSSYGMHWVRQAPGKGLEWVAVISYDGSNKYYADSVKGRFTISRDNSKNTLYLQMNSLRAEDTAVHYCAKDFRSFDWLPPDSASYHGMDVWGQGTTVTVSS VL: SYELTQPPSVSVPPGQTASITCSGDKLGDKYACWYQQKPGQSPVLVIYQDNKRPSGIPERFSGSNSGNTATLTISGTQAMDEADYYCQAWGRNTVVFGGGTKLTVL
label: fulfilled
--
binder: C33B125 (antibody, IgG1, V domains shown, huIgG1 F405L; also called C33F130; C33H84/C33L66) VH: QVQLVESGGGVVQPGRSLRLSCAASGFTFSSYGMHWVRQAPGKGLEWVAVISYDGSNKYYADSVKGRFTISRDNSKNTLYLQMNSLRAEDTAVYYCAKDFRSFDWLPPDSTSYYGMDVWGQGTTVTVSS VL: SYELTQPPSVSVSPGQTASITCSGDKLGDKYVCWYQQKPGQSPVVVIHQDRKRPSGIPERFSGSNFGNTATLTISGTQAMDEADYYCQAWDSSTVVFGGGTKLTVL
label: fulfilled
--
binder: C33B82 (antibody, IgG1, V domains shown, huIgG1 F405L; also called C33F87; C33H78/C33L57) VH: QVQLVESGGGVVQPGRSLRLSCAASGFTFSSYGMHWVRQAPGKGLEWVAVISYDGSNKYYADSVKGRFTISRDNSKNTLFLQMNSLRAEDTAVYYCAKDFRYFDWLPPDSSSYYGMDVWGQGTTVTVSS VL: SYELTQPPSVSVSPGQTASITCSGDELGNKYACWYQQKPGQSPVVVVYQDRKRPSGIPERFSGSNFGNTATLTISGTQAMDEADYYCQAWDSSTVVFGGGTKLTVL
label: fulfilled

Problem: Input C33B46 (antibody, IgG1, V domains shown, huIgG1 F405L; also called C33F51; C33H108/C33L74) VH: QVQLVQSGSELKKPGASVKVSCKASGYTFSTYAMNWVRQAPGQGLEWMGWINTNTGNPTYAQGFTGRFVFSLDTSVSTAYLQISSLKAEDTAVYYCARDRDRGTDYWGQGTLVTVSS VL: QSALTQPASVSGSPGQSITISCTGTSSDVGDDNYVSWYQQHPGKAPKLMIYDVSNRPSGVSNRFSGSKSGNTASLTISGLQSEDEADYYCSSYSSSTTLEVFGGGTKLTVL ; condition: MFI at 6 nM mAb strictly below 30000 MFI. Does it hold?
Result: not fulfilled

Problem: MFI at 6 nM mAb under 30000 MFI? Item: C33B72 (antibody, IgG1, V domains shown, huIgG1 F405L; also called C33F77; C33H65/C33L47) VH: QVQLVESGGGVVQPGRSLRLSCAASGFTFSSYGMHWVRQAPGKGLEWVVVISYDGSNKYYADSVKGRFTISRDNSKNTLYLQMNSLRAEDTAVYYCAKDFRDFDWLPPDSTSYHGMDVWGQGTTVTVSS VL: SYELTQPPSVSVSPGQTASITCSGDKLGDKYACWYQQKPGQSPVVVIYQDRKRPSGIPERFSGSNFGNTATLTISGTQAMDEADYYCQAWDSSTVVFGGGTKLTVL
Result: fulfilled

Problem: A record lists C33B88 (antibody, IgG1, V domains shown, huIgG1 F405L; also called C33F93; C33H88/C33L61) VH: QVQLVQSGSELKKPGASVKVSCKASGYTLTRSAMNWVRQAPGQGLEWMGWINTNTGNPTYAQGFTGRFVFSLDTSVNTAYLLISSLKTEDTAVYYCASDILPGYHEDYWGQGTLVTVSS VL: QSALTQPASVSGSPGQSITISCTGINSDVGSYDLVSWYQQHPGKAPKLLIYDGSERPSGVFGRFSGSKSDNTTSLTISGLQAEDEAAYYCCSYEVTTTYVVFGGGTKLTVL . Is its MFI at 6 nM mAb below 30000 MFI?
Result: not fulfilled

Problem: Is MFI at 6 nM mAb strictly under 30000 MFI for the entry C33B89 (antibody, IgG1, V domains shown, huIgG1 F405L; also called C33F94; C33H90/C33L51) VH: QVQLQQSGPGLVKPSQTLSLTCAISGDSVSSNSAAWNWIRQSPSRGLEWLGRTYYRSKWYNDYALSVQSRITINPDTSKNQFSLQLNSVTPEDTAVYYCAREVAVAASFDYWGQGTLVTVSS VL: SYVLTQPPSVSVAPGQTARITCGGNNIGSKSVHWSQQKPGQAPVLVVYDDSDRPSGIPERFSGSNSGNTATLTISRVEAGDEADYYCQVWDSNSDHVVFGGGTKLTVL ?
Result: not fulfilled

Problem: Check if MFI at 6 nM mAb falls below 30000 MFI for C33B80 (antibody, IgG1, V domains shown, huIgG1 F405L; also called C33F85; C33H76/C33L39) VH: EVQLLESGGGLVQPGGSLRLSCAASGFTFNYAMSWVRQAPGKGLEWVSAISGSGGSTYYADSVKGRFTISRDISKNTLYLQMNSLRAEDTAVYYCARTYNSGYYDGDFDYWGQGTLVTVSS VL: QSALTQPASVSGSPGQSIPISSTGTSSDDGKNNIVSWYQQHPGKAPKLMIYKDSKRPSGVSNRFSGSKSGNTASLTISGLQADDEADYHCCSYAGASNHVVFGGGTKLTVL .
Result: fulfilled

Problem: Report whether reported MFI at 6 nM mAb is lower than 30000 MFI (strictly) for C33B52 (antibody, IgG1, V domains shown, huIgG1 F405L; also called C33F57; C33H42/C33L8) VH: QLQLQESGPGLVNPSETLSHTCTVSGGSISSSSHYWGWIRQPPGKGLEWIGKIYYSGNTYYNPSLKSRVTISIDTSKNQFSLKMSSVTAADTAVYYCARLADVVVVPAARYFDSWGQGTLVTVSS VL: SYELTQPPSVSVSPGQTASIICSGDKLGNKYACWYQQKPGQSPVLVIYQDSKRPSGIPERFSGSNSGNTATLTISGTQAVDEADYYCQAWDSSTYVFGTGTKVTVL
Result: fulfilled

Problem: Quick check: MFI at 6 nM mAb of C33B66 (antibody, IgG1, V domains shown, huIgG1 F405L; also called C33F71; C33H55/C33L42) VH: QVQLQESGPGLVKPSGTLSLTCAVSGGSISSSNWWSWVRQPPGRGLEWIGEIYHSGNTNNSPSLKSRVTISADKSKNQFSLKLSSVTAADTAVYFCARIIAVARYFDSWGQGTLVTVSS VL: SYVLTQPPSVSVAPGQTARITCGGNNIGIKSVHWYQQKPGQAPVLVVYDDSDRPPGIPERFSGSNSGNTATLTITRVEAGDEADYYCQVWDSSSDHVVFGGGTKLTVL under 30000 MFI?
Result: not fulfilled
